Molecular target: T1, Human 20.2 peptide (human)
T1 construct: synthetic peptide from the RB exon
T1 peptide: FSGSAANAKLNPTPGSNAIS
Assay: recombinant antibody on peptide
measured.metric: binding result

binder	observed.measurement
AB-CD45RB-XG2-525 (antibody, human IgG2, V domains shown, recombinant human IgG2 kappa; also called sc525) VH: QVQLVESGGGVVQPGRSLRVSCAASGFTFSNYGMHWVRQAPGKGLEWVAVIWYDGSKKFYADSVKGRFTISRDNSQNTLSLQMSSLRAEDTAVYYCARGGGDFDFWGQGTLVTVSS VL: KIVMTQSPATLSVSPGERATLSCRASQSLSGSYLAWYQQRPGQAPRLLIYGASTRATGIPARFSGSGSGTEFTLTISSLQSEDFAVYYCQQYNKWPPLTFGGGTKVEIK	no binding
AB-CD45RB-XG2-502 (antibody, human IgG2, V domains shown, recombinant human IgG2 kappa; also called sc502) VH: QVQLVESGGGVVQPGRSLRVSCAASGFTFSNYGMHWVRQAPDKGLEWVAVIWYDGSKKFYADSVKGRFTISRDNSQNTLSLQMSSLRAEDTAVYYCARGGGDFDFWGQGTLVTVSS VL: KIVMTQSPATLSVSPGERATLSCRASQSVSGNYLAWYQRRPGQAPRLLIYGASTRATGIPARFSGSGSGTEFTLTISSLQSEDFAVYYCQQYGKWPPLTFGGGTKVEIK	no binding

Where do these numbers come from? They come from patent US20030232009A1.
